system: BDF1 mice, colon carcinoma 38 sc, T/C %; assay: NCI In Vivo Anticancer Drug Screen. Data for tumor model Colon Carcinoma 38 (subcutaneous) in B6D2F1 (BDF1) mice; settings: endpoint: median tumor weight (est.); dose: 6.25 mg/kg/injection; schedule: Q07DX002 (ip); vehicle: saline with Tween-80; higher = larger tumour
Results filed as inconclusive are left out.
recordedMetric: T/C

molecule: Cc1cnc(/C=N\NC(N)=S)c2cccc(N)c12
testResult: 110 % of control
//
molecule: CN1CCN(CCCN2c3ccccc3Sc3ccc(C(F)(F)F)cc32)CC1
testResult: 104 % of control
//
molecule: NC(=S)Nc1cccc2ccccc12
testResult: 164 % of control
//
molecule: Cc1cc2cc3cc(C)c(N)cc3nc2cc1N
testResult: 95 % of control
//
molecule: Nc1nc(N)c2c(ccc3c2ccn3Cc2cccc([N+](=O)[O-])c2)n1
testResult: 80 % of control
//
molecule: CN=C(N)N/N=C(\c1ccccc1)c1ccc(Br)cc1
testResult: 169 % of control
//
molecule: COc1ccc(S(=O)(=O)N/N=C/C(=O)O)cc1
testResult: 82 % of control
//
molecule: Cc1nn(CCO)c(C)c1N=[N+]([O-])c1c(C)nn(CCO)c1C
testResult: 102 % of control
//
molecule: C=CC(=O)N1CN(C(=O)C=C)CN(C(=O)C=C)C1
testResult: 104 % of control
//
molecule: O=C1OCC2(C(=O)O)C(=O)OCC12 (stereo not given)
testResult: 87 % of control
//
molecule: O=C(Nc1ccc(C2=NCCN2)cc1)c1ccc(C(=O)Nc2ccc(C3=NCCN3)cc2)c(Cl)c1
testResult: 117 % of control
//
molecule: O=c1cc(CCl)[nH]nc1CCl
testResult: 91 % of control
//
molecule: CS(=O)(=O)OCCN(CCOS(C)(=O)=O)c1ccc(C=O)cc1
testResult: 113 % of control
//
molecule: CS(=O)(=O)c1ncc(Br)cn1
testResult: 106 % of control
//
molecule: ClC1=C(Cl)C(Cl)=C(Cl)C1=Cc1ccccc1
testResult: 114 % of control

* * *

Below: a set of entries, each annotated with reported T/C.
system: BDF1 mice, colon carcinoma 38 sc, T/C %; test: NCI In Vivo Anticancer Drug Screen. Data for tumor model Colon Carcinoma 38 (subcutaneous) in B6D2F1 (BDF1) mice; details: endpoint: median tumor weight (est.); dose: 4.0 mg/kg/injection; schedule: Q07DX002 (ip); vehicle: saline with Tween-80; higher = larger tumour
Inconclusive results are not listed.

compound: CN(C)CCN1C(=O)c2cccc3cc(N)cc(c23)C1=O
T/C: 97 % of control
--
compound: CCCCCc1cc(/C=C2/N=C(c3ccc[nH]3)C=C2OC)[nH]c1C
T/C: 106 % of control
--
compound: COC(C(=O)C(O)C(C)O)C1Cc2cc3cc(OC4CC(OC(C)=O)C(OC5CC(O)C(OC)C(C)O5)C(C)O4)cc(O)c3c(O)c2C(=O)C1OC1CC(OC2CC(OC3CC(C)(O)C(OC(=O)C(C)C)C(C)O3)C(O)C(C)O2)C(O)C(C)O1 (configuration not stated)
T/C: 48 % of control
--
compound: CC(=O)OCC1C(=O)OCC1C(=O)N1Cc2cc3ccccc3nc2C1 (configuration not stated)
T/C: 88 % of control
--
compound: COC1=C2C[C@@H](C)C[C@@H](OC)[C@@H](O)[C@H](C)/C=C(\C)[C@@H](OC(N)=O)[C@H](OC)/C=C\C=C(/C)C(=O)NC(=CC1=O)C2=O
T/C: 98 % of control
--
compound: O=NN(CCCl)C(=O)NCCCl
T/C: 82 % of control
--
compound: NC(=O)c1cn(C2OC(CO)C(O)C2O)c2ncnc(N)c12 (configuration not stated)
T/C: 79 % of control
